Assay: Acid dissociation constant was determined
Assay type: ADME
Assay readout: pKa
Give your answer as a number; write no unit.

Worked set:
Compound smiles: CCCCCCCCNC(=O)Cc1ccc(O)c(N)c1
pKa: 10
//
Compound smiles: CCCCCCCCNC(=O)Cc1ccc(O)c([N+](=O)[O-])c1
pKa: 7.7
//
Compound smiles: CCCCCCCCNC(=O)Cc1ccc(O)c(Cl)c1
pKa: 9
//
Compound smiles: CCCCCCCCNC(=O)Cc1ccc(O)c(NC(C)=O)c1
pKa: 9.7
//
Compound smiles: CCCCCCCCNC(=O)Cc1ccc(O)c(OCC)c1
pKa: 10.4

Specify pKa for CCCCCCCCNC(=O)Cc1ccc(O)cc1 and stop.
10.2

Specify pKa for CCCCCCCCNC(=O)Cc1ccc(O)c(C)c1 and stop.
10.6

Specify pKa for CCCCCCCCNC(=O)Cc1ccc(O)c(OC)c1 and stop.
9.9

Specify pKa for CCCCCCCCNC(=O)Cc1ccc(O)c(O)c1 and stop.
9.2
